# STUDY SYSTEM: MLLT1 (Homo sapiens, UniProt Q03111)
# Sequence (Q03111 whole entry): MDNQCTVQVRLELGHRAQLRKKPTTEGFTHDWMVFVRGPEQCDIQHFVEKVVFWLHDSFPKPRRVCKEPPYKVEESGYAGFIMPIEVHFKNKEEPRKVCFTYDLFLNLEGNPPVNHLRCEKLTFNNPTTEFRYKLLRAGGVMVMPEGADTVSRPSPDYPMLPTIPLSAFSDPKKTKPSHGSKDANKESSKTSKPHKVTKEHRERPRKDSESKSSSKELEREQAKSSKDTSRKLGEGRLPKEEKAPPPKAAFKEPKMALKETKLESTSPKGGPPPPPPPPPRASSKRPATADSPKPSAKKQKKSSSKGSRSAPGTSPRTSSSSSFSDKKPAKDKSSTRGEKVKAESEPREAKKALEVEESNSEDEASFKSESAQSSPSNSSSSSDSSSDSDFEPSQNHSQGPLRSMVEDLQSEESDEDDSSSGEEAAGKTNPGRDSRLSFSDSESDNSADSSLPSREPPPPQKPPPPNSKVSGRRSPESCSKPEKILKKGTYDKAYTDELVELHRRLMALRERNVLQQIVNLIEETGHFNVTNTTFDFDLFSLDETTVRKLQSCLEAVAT
# METHOD: biochemical
# ASSAY CONDITIONS: MLLT1 assay IC50 (nM), HTRF, 6His tagged MLLT1, biotinylated H3K9cro peptide; compound 20 μM to 20 nM, 11 data points in duplicate
QUANTITY KIND: IC50

## Input Fetch value of IC50 on MLLT1 (Homo sapiens, UniProt Q03111) for CCN1CCCC1c1cn2cc(NC(=O)c3ccc4c(C)nn(C)c4c3)ncc2n1 (single isomer, unassigned) [Example 88] .
## Output 1500 to 20000 nM

## Input Fetch value of IC50 on MLLT1 (Homo sapiens, UniProt Q03111) for CN1CCOCC1c1cn2cc(NC(=O)c3ccc4c(cnn4C)c3)ccc2n1 (racemic) [Example 2] .
## Output 1500 to 20000 nM

## Input Fetch value of IC50 on MLLT1 (Homo sapiens, UniProt Q03111) for Cc1nc(NC(=O)c2cc3c(C)nc(C)n3cc2F)cn2cc([C@H]3CCCN3C)nc12 [Example 94] .
## Output 150 to 1500 nM
